# Test system: CAKI-1 renal
# MEASUREMENT NOTES: NCI-60 one-dose screen, 48 h (100 = growth as untreated, 0 = no growth, -100 = all killed)
# EXPERIMENTAL PARAMETERS: 10 µM unless noted
About 83,000 compounds went through this panel and 20% of them were active in at least one assay; those are over-represented in the sample as a whole.
Binary call on growth: rule met from 80% upward, rule not met beneath that.

CSc1nc2c(c(=O)[nH]1)N=C1c3ccccc3C(=O)C1C(c1ccc(F)cc1)N2 (stereo not drawn) ... rule not met
O=C1c2ccc3c4c(ccc(c24)C(=O)N1CCCCO)C(=O)N(CCCCO)C3=O ... rule not met
O=c1oc2ccc(Br)cc2c(=O)n1-c1ccc(F)cc1F ... rule not met
CCOc1ccc2nc(C)cc(Nc3ccc(Br)cc3)c2c1 ... rule met
Cc1ccc2cccc(Oc3ccc(Nc4ncnc5onc(-c6ccccc6)c45)cc3)c2n1 ... rule met
COc1ccc(Br)c(/C=C2\SC(=Nc3ccc(O)cc3)NC2=O)c1 ... rule not met

Moving on to the next molecule.
Please check the record O=C(Nc1ccccc1O)c1ccc(Oc2cccc(C(=O)Nc3ccccc3O)c2)cc1 and state if its growth is at or above 80%.
rule not met

* * *

# System: ACHN renal
# MEASUREMENT NOTES: NCI-60 one-dose screen, 48 h (100 = growth as untreated, 0 = no growth, -100 = all killed)
# EXPERIMENTAL PARAMETERS: 10 µM unless noted
About 83,000 compounds went through this panel and 20% of them were active in at least one assay; those are over-represented in the sample as a whole.
As shown below, each of these compounds has a reported growth value.
I only need the number, in %, no unit after it.

Here is how some compounds turned out for growth.
COc1cc(/C=C2\CN(S(=O)(=O)c3ccccc3)C/C(=C\c3cc(CN4CCCC4)c(O)c(OC)c3)C2=O)cc(CN2CCCC2)c1O ... 12.1
O=C(O)c1cn(C2CC2)c2cc(N3CCN(C(=O)C[n+]4ccccc4)CC3)c(F)cc2c1=O ... 103
CCOC(=O)C1(Cc2ccccc2)CCN(Cc2cccc(OC)c2O)CC1 ... 10.8
Oc1[nH]c2ccccc2c1N=Nc1nnc2n1N=C(c1ccccc1)CS2 ... 94.8
COc1ccc2c(c1)C=C1CSCC3=Cc4cc(OC)ccc4OC13O2 ... 32.5
Cn1c2c(c(=O)[nH]c1=O)NC1=C(C(=O)c3ccccc31)C1(C=C(O)c3ccccc31)N2 (stereo not drawn) ... 89.7
Cc1cc2c(c(C)c1Cl)C(=O)/C(=C/c1cccc([N+](=O)[O-])c1)O2 ... 107
O=C(CCc1nnc2sc(Cc3ccccc3Cl)nn12)c1nc2ncccc2[nH]1 ... 94.9
O=c1c(-c2nc3ccccc3[nH]2)cc2ccccc2n1Cc1cn(Cc2ccc(F)cc2)nn1 ... 15
COc1cc(/C=C/C(=O)N2c3ccccc3CC2C)c(OC)c2c1OCO2 (stereo not drawn) ... 95.7

Give its growth value. Item: COC(=O)C1=Nc2ccc(F)cc2/C1=C/c1sc(=S)[nH]c1O
25.1

Give its growth value. Item: COc1cc(OC)cc(N2C(=O)N(Cc3ccc(C(C)(C)C)cc3)c3ccccc3S2(=O)=O)c1
81.2

Give its growth value. Item: O=C(N/N=C/c1ccccc1Cl)C(=O)Nc1cccc(C(F)(F)F)c1
76

Give its growth value. Item: CN1C(=O)N(C)C2Nn3c(s/c(=C4\C(=O)N(CCc5ccccc5)c5ccccc54)c3=O)=NC21 (stereo not drawn)
59.3

Give its growth value. Item: O=NN(C(=O)NC1CCC(C(=O)O)CC1)C1CCC(C(=O)O)CC1 (stereo not drawn)
100

* * *

# System: SK-MEL-2 melanoma
# MEASUREMENT NOTES: NCI-60 one-dose screen, 48 h (100 = growth as untreated, 0 = no growth, -100 = all killed)
# EXPERIMENTAL PARAMETERS: 10 µM unless noted
About 83,000 compounds went through this panel and 20% of them were active in at least one assay; those are over-represented in the sample as a whole.
QUANTITY NAME: growth (%)
I only need the number, in %, no unit after it.

Here is how some compounds turned out for growth.
NC1(N2SC(S)=C3CCCC=C32)CCCCC1 ... 111
CCOC(=O)c1cc2c(n1Cc1cccc(OC)c1)-c1oncc1CCC2 ... 36.9
CCCCc1ccc(NS(=O)(=O)c2cc3c4c(c2)CCN4C(=O)CC3)cc1 ... 40.8
COc1ccc2[nH]c(O)c(N=NC(=O)c3oc4ccccc4c3C)c2c1 ... 70.9
O=S1(=O)N(Cc2ccccc2)[C@@H](Cc2ccccc2)[C@H](O)[C@H](O)[C@H](Cc2ccccc2)N1Cc1ccccc1 ... -5.68

Request - read-out growth | tested on SK-MEL-2 melanoma | compound COc1ccccc1N1CCN(C(CNS(=O)(=O)c2ccc(Cl)cc2)c2cccnc2)CC1 (stereo not given)
120

Request - read-out growth | tested on SK-MEL-2 melanoma | compound O=C(N/N=C/c1ccccc1O)C(=O)Nc1ccc(F)cc1
71.6

Request - read-out growth | tested on SK-MEL-2 melanoma | compound O=c1oc2ccc(I)cc2c(=O)n1-c1ccc(Cl)cc1F
-28.6

Request - read-out growth | tested on SK-MEL-2 melanoma | compound COc1ccc(C(=O)C2CC2c2ccc(Cl)cc2)cc1 (stereo not given)
89

Request - read-out growth | tested on SK-MEL-2 melanoma | compound O=C1Nc2ccccc2/C1=C/c1cccs1
110

Request - read-out growth | tested on SK-MEL-2 melanoma | compound CCCN1C(=O)N(CCC)C2C1NN=c1s/c(=C3\C(=O)N(C(C)C)c4ccccc43)c(=O)n12 (stereo not given)
49.4

Request - read-out growth | tested on SK-MEL-2 melanoma | compound Nc1nc(-c2ccccc2Br)nn1-c1nc2ccccc2s1
96.7

Request - read-out growth | tested on SK-MEL-2 melanoma | compound COc1cc(/C=C2\CN(C)C/C(=C\c3cc(CN4CCOCC4)c(O)c(OC)c3)C2=O)cc(CN2CCOCC2)c1O
72.2

Request - read-out growth | tested on SK-MEL-2 melanoma | compound COc1ccc(/C=C/C(=O)c2ccc(Nc3nc(NCCO)nc(Nc4ccc(Cl)cc4)n3)cc2)cc1
98.1

Request - read-out growth | tested on SK-MEL-2 melanoma | compound O=C(COc1cc(O)c2c(=O)cc(-c3ccccc3)oc2c1)Nc1ccccc1C(F)(F)F
92

Request - read-out growth | tested on SK-MEL-2 melanoma | compound CCOc1cccc(/C=N\Nc2nc(=O)cc(C(=O)OC)s2)c1O
99.6

Request - read-out growth | tested on SK-MEL-2 melanoma | compound CN1CCN(Cc2ccc(C(=O)Nc3cncc(C#Cc4cnc(N)c5ccccc45)c3)cc2C(F)(F)F)CC1
-53.9

Request - read-out growth | tested on SK-MEL-2 melanoma | compound O=C(Nc1ccc(F)c(Cl)c1)Nc1ccc(Cl)c(Cl)c1
79.7

Request - read-out growth | tested on SK-MEL-2 melanoma | compound O=c1c2cc(F)ccc2sc2c(NCCCNCCO)nc3ccc(Cl)cc3c12
105

Request - read-out growth | tested on SK-MEL-2 melanoma | compound Oc1[nH]c2ccccc2c1N=Nc1nnc2n1N=C(c1ccccc1)CS2
87.6

Request - read-out growth | tested on SK-MEL-2 melanoma | compound Cc1ccc(CN2CCC(C(=O)Nc3ccc(-c4cc5ccccc5[nH]4)cc3)CC2)o1
88.4

* * *

# System: ACHN renal
# MEASUREMENT NOTES: NCI-60 one-dose screen, 48 h (100 = growth as untreated, 0 = no growth, -100 = all killed)
# EXPERIMENTAL PARAMETERS: 10 µM unless noted
# Experimental: Growth inhibition of the ACHN human tumor cell line is measured as a screen for anti-cancer activity. Cells are grown in 96 well plates and exposed to the test compound for 48 hours. Compounds are tested at a single concentration, which is 10^-5 M for most compounds. The reported endpoint is percent growth (GI% or GIPRCNT), where numbers from 0 - 100% represent growth inhibition, and numbers from -100% - 0 represent cell death. For example, a value of 40 represents 60% growth inhibition. […]
The panel holds about 83,000 compounds, 20% with a hit somewhere; the sample as a whole holds those more often.
QUANTITY NAME: growth (%)
I only need the number, in %, no unit after it.

COc1cc(/C=C/C(=O)c2ccc(Nc3nc(NCCO)nc(N4CCOCC4)n3)cc2)cc(OC)c1OC ... 23.3
O=C(/C=C/c1ccc(C(F)(F)F)cc1)c1ccc(Nc2nc(NCCO)nc(N3CCOCC3)n2)cc1 ... 36.5
COc1cccc(C(=O)Cn2cc(/C=C(\C#N)S(=O)(=O)c3ccccc3)c3ccccc32)c1 ... 111
COc1ccc(C2=NN(/C=C3\SC(=O)NC3=Nc3ccc(F)cc3)C(c3ccc(F)cc3)C2)cc1 (stereo not drawn) ... 93.7
O=c1oc2ccc(F)cc2c(=O)n1-c1ccc(Cl)cc1F ... 1.55
FC(F)(F)c1cccc(CNC2CCN(CCc3ccccc3)CC2)c1 ... 90.7

Give its growth value. Item: C#CCn1cc(C=C2C(=O)N(C)C(=O)N(C)C2=O)c2cc(Cl)ccc21
99.4

Give its growth value. Item: CCCCc1c(CCC)c(=N)c2ccccc2n1C
78.4

Give its growth value. Item: Cn1cc([C@@H]2Nc3ccc4[nH]ncc4c3[C@H]3[C@H]4CCC(C4)[C@H]32)c(C(F)(F)F)n1
50.5

Give its growth value. Item: COc1ccc(C2c3ccc4ccccc4c3Oc3ncn(CCCn4ccnc4)c(=N)c32)cc1OC (stereo not drawn)
67.4

Give its growth value. Item: O=C(Nc1ccc(Cl)cc1)N1CCN(c2ccc3nncn3n2)CC1
8.04

Give its growth value. Item: O=C(Nc1ccc(I)cc1F)c1cc(Br)ccc1O
4.42

Give its growth value. Item: NC1C(N)C(N)C1N (stereo not drawn)
96.8
